System: OVCAR-5 (Ovarian Carcinoma)
Test: combination Emax (second highest fraction inhibited in the dose matrix, 72 h); higher = more inhibition; extreme values may be limits of the assay
Recorded combination Emax, one value per entry.
Answer as a number with no unit attached.

COc1cccc(OCCCN)c1-c1cc(Nc2cnc(C#N)cn2)n[nH]1 [Prexasertib] + CN(C)CCCOc1ccc(-c2ccc3ncc4c(c3c2)n(C2CCOCC2)c(=O)n4C)cn1 [AZD0156] (first compound max 1 µM, 7x7, partner max 1 µM) | 0.838
C=CCn1c(=O)c2cnc(Nc3ccc(N4CCN(C)CC4)cc3)nc2n1-c1cccc(C(C)(C)O)n1 [AZD1775] + Nc1ccn([C@@H]2O[C@H](CO)[C@@H](O)C2(F)F)c(=O)n1 [Gemcitabine] (first compound max 1 µM, partner max 0.3 µM) | 0.692
Cn1cnc2c(F)c(Nc3ccc(Br)cc3Cl)c(C(=O)NOCCO)cc21 [Selumetinib] + C=CCn1c(=O)c2cnc(Nc3ccc(N4CCN(C)CC4)cc3)nc2n1-c1cccc(C(C)(C)O)n1 [AZD1775] (first compound max 10 µM, partner max 1 µM) | 0.58
CC(=O)c1c(C)c2cnc(Nc3ccc(N4CCNCC4)cn3)nc2n(C2CCCC2)c1=O [Palbociclib] + CC1(C)CCC(CN2CCN(c3ccc(C(=O)NS(=O)(=O)c4ccc(NCC5CCOCC5)c([N+](=O)[O-])c4)c(Oc4cnc5[nH]ccc5c4)c3)CC2)=C(c2ccc(Cl)cc2)C1 [Venetoclax] (first compound max 10 µM, 7x7, partner max 1 µM) | 0.346

Could you share which combination Emax value was measured for O=C(c1cc(Cc2n[nH]c(=O)c3ccccc23)ccc1F)N1CCN(C(=O)C2CC2)CC1 [Olaparib] + COc1nnc2ccc(N3CCC(c4ccc(OCCN5CCN(C)C(=O)[C@H]5C)cc4)CC3)nn12 [AZD5153] (first compound max 10 µM, 7x7, partner max 1 µM) ?
0.449

Reference source: the supplement of paper PMC11061612
